assayed.target: T1, LIN7A, O14910
T1 sequence (O14910 103-200, limits assumed, looked up): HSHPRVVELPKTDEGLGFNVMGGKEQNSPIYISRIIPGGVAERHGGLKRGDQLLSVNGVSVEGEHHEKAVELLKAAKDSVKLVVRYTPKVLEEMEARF
method.summary: holdup assay
Set-up: key: below the threshold = too weak to quantify, mostly under pKd 3.1 to 4
test.context: plain residues with an end cap or a label only (N-terminal biotin on a linker: ado-ado)
experimental.endpoint: pKd

binder: AAVENKVTDL [PLXNB1, O43157]
result: below the threshold
//
binder: DFLSTFHIRI [CIB2, O75838]
result: below the threshold
//
binder: DDASLPVSDV [PLEKHA1, Q9HB21]
result: below the threshold
//
binder: NTLNRKTTPV [CACNG8, Q8WXS5]
result: below the threshold
//
binder: ILRKSTTTTV [PRR16, Q569H4]
result: below the threshold
//
binder: SRSVVESDEL [MYPN, Q86TC9]
result: below the threshold
//
binder: PYSESDDDWC [CACNA1A, O00555]
result: below the threshold
//
binder: TRKRSGEAAV [PFKM, P08237]
result: below the threshold
//
binder: DPAESMESLV [PTPRG, P23470]
result: 3.7
//
binder: TNSRHGETTV [FZD2, Q14332]
result: 3.85
//
binder: APIAGFSSFV [SDK2, Q58EX2]
result: below the threshold
//
binder: GEDRSPPTAL [MKNK1, Q9BUB5]
result: below the threshold
//
binder: GTGYDRKDYV [CLDN3, O15551]
result: below the threshold
//
binder: TISFTQTSQF [SLC1A1, P43005]
result: below the threshold
//
binder: EIPAQSPTCV [FZD10, Q9ULW2]
result: 3.48
//
binder: REEPDHSTEV [CCRL2, O00421]
result: below the threshold
//
binder: PSHPRLQTHV [KIRREL2, Q6UWL6]
result: below the threshold
//
binder: PSVGSKKTVL [REELD1, A0A1B0GV85]
result: below the threshold
//
binder: RQKEVRESKC [SCN8A, Q9UQD0]
result: below the threshold
//
binder: NIAESLESLV [PTPRZ1, P23471]
result: 4.04
//
binder: ARSAAASNYV [CLDN4, O14493]
result: below the threshold
//
binder: LKDDELKTKL [SLCO1A2, P46721]
result: below the threshold
//
binder: LAHVKHKEQI [AQP3, Q92482]
result: below the threshold
//
binder: KSRVAFFEEL [NF2, P35240]
result: 3.51
//
binder: EPQYQPGENL [SRC, P12931]
result: below the threshold
//
binder: QKAPTKEFYA [SDC2, P34741]
result: below the threshold
//
binder: PPGKHLVTEV [KCNA7, Q96RP8]
result: below the threshold
